# experimental target: Low molecular weight phosphotyrosine protein phosphatase (Homo sapiens)
# Sequence (P24666 whole entry, canonical isoform): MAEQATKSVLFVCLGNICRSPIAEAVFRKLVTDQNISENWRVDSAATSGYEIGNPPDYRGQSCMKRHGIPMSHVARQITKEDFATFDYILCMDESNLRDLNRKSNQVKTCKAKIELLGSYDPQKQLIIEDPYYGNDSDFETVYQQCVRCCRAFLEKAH
# assay text: Competitive inhibition of LMW-PTP isoform A (unknown origin)
quantity kind: Ki (µM)
Give bare numbers, in µM.

Ask | For Cc1ncc(COP(=O)(O)O)c(C=O)c1O [PYRIDOXAL PHOSPHATE ANHYDROUS] , what is its reported Ki?
Reply | 13

====

# Species on record: Homo sapiens
# assay text: Selectivity index, ratio of Ki for LMW-PTP isoform B (unknown origin) to Ki for LMW-PTP isoform A (unknown origin)
quantity kind: Ratio

Please review the following examples before continuing.
{"chemical smiles": "O=P(O)(O)/C=C/c1ccccc1", "result": "> 21"}
{"chemical smiles": "O=P(O)(O)C(F)(F)Cc1ccccc1", "result": "> 28"}

Ask | Fill in: Ratio of O=P(O)(O)CCc1ccccc1 is ___
Reply | > 18
